- System: Plasmodium berghei
- assay.method.text: Screen against P. berghei liver stage (PbLuc), transformed with Luciferase, at 10uM
- Assay type: functional, HepG2
- stated.conditions: tested at 10 uM
The whole screen tested about 69,000 compounds, of which about 8,600 (12%) showed an effect of 50% or more. The sample as a whole holds a higher share of strong results than the screen did.
assay.endpoint: INHIBITION (%)
Write the value in % as a bare number.

(Q) Record lookup: for Plasmodium berghei, what INHIBITION belongs to CCOCC1CN(Cc2ccc(F)cc2)Cc2nn(C)cc21 (centres undefined) ?
(A) 41.6

(Q) Under Plasmodium berghei: INHIBITION value of CCOCC1CN(CC2CC2)Cc2nn(C)cc21 (centres undefined) ?
(A) 52

(Q) API: value(readout=INHIBITION, system=Plasmodium berghei) for record O=C(NCc1ccncc1)N1CCSCC1c1ccc(Cl)cc1 (centres undefined)
(A) -23.2

(Q) Can you look up INHIBITION on Plasmodium berghei for CCOCC1CN(CC2CC2)Cc2nn(CC3CC3)cc21 (centres undefined) ?
(A) 29

###

- System: Plasmodium berghei
- assay.method.text: Screen against P. berghei liver stage (PbLuc), transformed with Luciferase, at 10uM
- Assay type: functional, HepG2
- stated.conditions: tested at 10 uM
Hit rate of the full screen: of about 69,000 compounds, about 8,600 (12%) showed an effect of 50% or more. For the sample, strong results were picked, then their nearest neighbours and some compounds at random.
Classes by INHIBITION: low: < 10%; middle: ≥ 10% and < 30%; high: ≥ 30%

Known results for compounds:
CC(=O)N(Cc1ncc(C(C)C)o1)C1CCN(Cc2cc(C)on2)C1 (centres undefined) : low
OCc1cn(Cc2cccc(F)c2)nn1 : middle
COc1ccccc1[C@@H]1CN(Cc2csc(C(C)=O)c2)C[C@H]1C(=O)O : low
CCOC(=O)c1ccc(N2CCN(Cc3c(C)nn(C)c3Cl)CC2)nc1 : high
O[C@H]1[C@H](NCCSc2ccccn2)c2ccccc2C12CCNCC2 : high
CCc1nn(C)c(Cl)c1CN1CCN(c2ccc(Cl)nn2)CC1 : high

(Q) Assign a bin to `CCCN1CCC(c2nc3ccc(-c4ccccc4)cn3n2)CC1`
(A) high

(Q) Category of `Cc1ccc(CN2C[C@@H]3COC[C@@H](NS(C)(=O)=O)[C@@H]3C2)o1` :
(A) low

(Q) Sort into band: `O=C(Nc1nncs1)N1CCC(CCc2ccc(O)cc2)CC1`
(A) middle

(Q) Entry O=C(Cc1c[nH]c2ncccc12)NCC(O)c1ccccc1F (centres undefined) belongs to which category?
(A) middle

(Q) Band assignment needed for O=C(N1CCCCC1)N1CCN(CC(O)c2ccc(F)cc2)CC1 (centres undefined) please.
(A) low

(Q) State the class of the compound shown: `O[C@H]1[C@H](NCCc2cnccn2)c2ccccc2C12CCNCC2`
(A) high

(Q) For the record O=C(NCc1ccco1)N(CCCO)C1CCCc2ccccc21 (centres undefined) , report the class its INHIBITION corresponds to.
(A) middle

(Q) Category of OC(CN1CCN(Cc2nnc(C3CC3)o2)CC1)c1ccccc1 (centres undefined) , please.
(A) low

(Q) Into which category would you place CC(O)CN1CCN(CCOCC(F)(F)F)CC1 (centres undefined) ?
(A) low

###

Measured INHIBITION, listed per entry.
- Tested on: Plasmodium berghei
- assay.method.text: Screen against P. berghei liver stage (PbLuc), transformed with Luciferase, at 10uM
- Type: functional, HepG2
- stated.conditions: tested at 10 uM
Screen size: about 69,000 compounds; about 8,600 (12%) showed an effect of 50% or more. Only a selection was taken, and strong results are over-represented in it overall.
Number in %, nothing else.

Below: 8 compounds and their reported INHIBITION.
NC(CC1CCCC1)c1ccc(Oc2ccccc2)cc1 (stereo not given) : 80.1
Cn1cc(Cl)c(CN(Cc2ccsc2)CC2CCCO2)n1 (stereo not given) : 11.5
O=C(c1ccco1)N1CC(S(=O)(=O)c2ccc(Cl)cc2)C1 : 50.5
Cc1nnc(NC(=O)NC2CCCc3c2cnn3CCO)s1 (stereo not given) : 38
NC(=O)C(NC1CCN(CC2CCCCC2)CC1)c1ccc(F)cc1 (stereo not given) : -55.1
c1cncc(OCCCNC2COc3ccccc3C2)c1 (stereo not given) : 38.5
CCS(=O)(=O)NCC(=O)N(C1CC1)C1Cc2ccccc2C1 : 7.39
Cc1cccc(C)c1NC(=O)c1n[nH]c(-n2cnnc2)n1 : 19.6

(Q) Consider the compound CC(=O)N1CCC2(CC1)COC(COCc1ccccn1)C2 (stereo not given) and give its measured INHIBITION.
(A) 14.6

(Q) Could you share which INHIBITION value was measured for CCOCc1cccc(NC(=O)C2COCCO2)c1 (stereo not given) ?
(A) 59.3

(Q) Which measured INHIBITION value corresponds to COc1ccc(C(C)NC(=O)Cn2ccc(=O)n(C)c2=O)cc1OC (stereo not given) ?
(A) 31.9

(Q) Any idea what INHIBITION was measured for CCCN(CCS(C)(=O)=O)C1CCc2ccccc2C1 (stereo not given) ?
(A) 53.5

###

Reported INHIBITION by item:
- System: Plasmodium berghei
- assay.method.text: Screen against P. berghei liver stage (PbLuc), transformed with Luciferase, at 10uM
- Format: functional, HepG2
- stated.conditions: tested at 10 uM
The campaign covered roughly 69,000 compounds. About 8,600 (12%) showed an effect of 50% or more. The sample as a whole holds a higher share of strong results than the screen did.

COc1ncnc2c1CCN(C(=O)NCc1cccc(F)c1)CC2 : 17.2%
CCS(=O)(=O)N1CCc2ncnc(C)c2CC1 : 42.3%
Cn1ccnc1CN1CCCC(Cc2ccnc3ccncc23)CC1 (stereo not given) : 29.3%

(Q) Short answer please: INHIBITION, Plasmodium berghei, entry Fc1ccc(CN2CCCCC2Cn2cncn2)c2ncccc12 (stereo not given)
(A) 21.6%

###

- Test system: Plasmodium berghei
- assay.method.text: Screen against P. berghei liver stage (PbLuc), transformed with Luciferase, at 10uM
- Format: functional, HepG2
- stated.conditions: tested at 10 uM
The whole screen tested about 69,000 compounds, of which about 8,600 (12%) showed an effect of 50% or more. Shown is part of a subset that was picked to be rich in strong results.
Consider the following molecules and their measured INHIBITION readings.
# value in %; strip the unit string

C[C@@H]1CN(C(=O)c2cccn2C)C[C@]12CCN(c1ccsc1)C2=O : 8.93

(Q) What does the record list as INHIBITION for COc1ccc(CN2CCC3(CC2)C(C(=O)O)CC(=O)N3C)cc1Cl (configuration not stated) ?
(A) 39.9

(Q) What does the data say about its INHIBITION? Entry: `CCCc1nc(N2CC[C@@H](c3ccc4ccccc4c3)[C@H](O)C2)no1`
(A) 36.7

(Q) I'd like to know its INHIBITION. The molecule in question is `Cc1ccc2cc(C3(O)CCN(C(=O)CSC(C)C)CC3)ccc2n1`
(A) 81.6

(Q) Any idea what INHIBITION was measured for COC(=O)CC1CN(Cc2c(Cl)ccc3cccnc23)CCO1 (configuration not stated) ?
(A) -14.2

(Q) Which INHIBITION value is on record for `Cc1noc(C)c1S(=O)(=O)NC(=O)COc1ccc2c(c1)CCC2` ?
(A) 45.3

(Q) What does the data say about its INHIBITION? Entry: `Cc1cc(Cc2ccc(S(=O)(=O)N3CCCC3)cc2)c(=O)[nH]n1`
(A) 20.9

(Q) Form field: reported INHIBITION of CC(CC(=O)N1CCCN(Cc2nccn2C)CC1)n1cccc1 (configuration not stated)
(A) 18.9

###

Here, each record is paired with measured INHIBITION data.
- Test system: Plasmodium berghei
- assay.method.text: Screen against P. berghei liver stage (PbLuc), transformed with Luciferase, at 10uM
- Format: functional, HepG2
- stated.conditions: tested at 10 uM
In all, about 69,000 compounds went through this assay and about 8,600 (12%) showed an effect of 50% or more. The sample as a whole holds a higher share of strong results than the screen did.
Please respond with the number in % and leave the unit unwritten.

Solved cases (5 shown):
CCOC1COC2(CCN(c3ncc(C)cn3)CC2)C1 (configuration not stated) : 10.6
CO[C@H]1CN(S(=O)(=O)c2ccc(F)cc2)C[C@@]12CCCO2 : -23.4
COc1ccc(C2CCCN2C(=O)NCCNc2ccccn2)cc1 (configuration not stated) : -21.2
Cc1ccc(CN2CCC3(CC2)CCN(Cc2ccco2)CC3)cc1 : -13.7
NC(=O)NCCC(=O)N1CCC(c2cc(Cc3ccccc3)n[nH]2)CC1 : -5.22

(Q) Recorded INHIBITION for OC1(CN2CCCC2)COCCN(c2ncnc3[nH]cnc23)C1 (configuration not stated) , please?
(A) 56.1

(Q) Entry `Cc1nc(-c2cn(CCN)nn2)n(-c2ccc(C(F)(F)F)cc2)n1` : reported INHIBITION = ?
(A) 76.8
